Biological target: FPR R190/N192 (Homo sapiens, UniProt P21462)
Sequence (P21462 whole entry): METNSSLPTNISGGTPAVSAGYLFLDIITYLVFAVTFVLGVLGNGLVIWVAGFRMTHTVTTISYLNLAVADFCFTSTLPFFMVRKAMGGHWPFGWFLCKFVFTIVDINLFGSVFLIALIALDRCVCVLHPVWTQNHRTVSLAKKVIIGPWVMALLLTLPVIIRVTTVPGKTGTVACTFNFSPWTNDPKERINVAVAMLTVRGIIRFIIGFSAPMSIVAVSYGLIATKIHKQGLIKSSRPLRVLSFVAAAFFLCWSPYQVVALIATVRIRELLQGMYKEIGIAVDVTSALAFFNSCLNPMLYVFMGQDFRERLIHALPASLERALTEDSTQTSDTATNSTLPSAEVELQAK
Assay: FACScan analysis of ligand binding
Settings: Ki for binding of peptides to R190/N192 FPR, ± SEM; vs 0.38 nM formyl-Nle-Leu-Phe-Nle-Tyr-Lys-FITC, 4 °C, 60 min
pKi: −log10 of the molar value.

substance	pKi
Ac-WEDWVGWI-NH2	5.89

Hey, just so you know, these numbers are from paper PMC2094211.
